- System: A2780 ovarian cells
- experiment summary: A2780 Ovarian Cell Proliferation Assay in Lipid Reduced Medium, without Palmitate
- Type: cell-based
- experimental setup: Homo sapiens, A2780; lipid reduced medium, without palmitate, 96 h, MTT; read-out: Proliferation A2780 w/o Palmitate pIC50 (converted)
Threshold 100 nM: IC50 strictly smaller gives criterion met, otherwise criterion not met.

> print(dat)
                                   compound           category
1  CCC(=O)N[C@@H]1CC[C@H](C(=O)Nc2cc(C(=O)N3CCC(c4ccc(-c5ccnn5C)cc4)CC3)ccc2C)C1 [Compound 13]  criterion not met
2  COc1cccc(-c2ccc(C3CCN(C(=O)c4ccc(C)c(NC(=O)c5ccc(NC(C)C)nc5)c4)CC3)cc2)c1 [Compound 201]  criterion not met
3  Cc1ccc(C(=O)N2CCC(c3ccc(-c4cnn(CC5CC5)c4)cc3)CC2)cc1NC(=O)c1ccc(NC(C)C)nc1 [Compound 249]      criterion met
4  COc1ccccc1-c1ccc(C2CCN(C(=O)c3ccc(C)c(NC(=O)c4ccc(NC(C)C)nc4)c3)CC2)cc1 [Compound 200]  criterion not met
5  Cc1ccc(C(=O)N2CCC(c3ccc(-c4cnn(C)c4)cc3)CC2)cc1NC(=O)c1cnc(Cl)nc1 [Compound 136]  criterion not met

====

- tested system: hFASN enzyme (full length) (Homo sapiens, UniProt P49327)
- Construct: 10 μL hFASN enzyme (full length, 300 ng, purified in house); made in house
- Sequence (P49327 whole entry): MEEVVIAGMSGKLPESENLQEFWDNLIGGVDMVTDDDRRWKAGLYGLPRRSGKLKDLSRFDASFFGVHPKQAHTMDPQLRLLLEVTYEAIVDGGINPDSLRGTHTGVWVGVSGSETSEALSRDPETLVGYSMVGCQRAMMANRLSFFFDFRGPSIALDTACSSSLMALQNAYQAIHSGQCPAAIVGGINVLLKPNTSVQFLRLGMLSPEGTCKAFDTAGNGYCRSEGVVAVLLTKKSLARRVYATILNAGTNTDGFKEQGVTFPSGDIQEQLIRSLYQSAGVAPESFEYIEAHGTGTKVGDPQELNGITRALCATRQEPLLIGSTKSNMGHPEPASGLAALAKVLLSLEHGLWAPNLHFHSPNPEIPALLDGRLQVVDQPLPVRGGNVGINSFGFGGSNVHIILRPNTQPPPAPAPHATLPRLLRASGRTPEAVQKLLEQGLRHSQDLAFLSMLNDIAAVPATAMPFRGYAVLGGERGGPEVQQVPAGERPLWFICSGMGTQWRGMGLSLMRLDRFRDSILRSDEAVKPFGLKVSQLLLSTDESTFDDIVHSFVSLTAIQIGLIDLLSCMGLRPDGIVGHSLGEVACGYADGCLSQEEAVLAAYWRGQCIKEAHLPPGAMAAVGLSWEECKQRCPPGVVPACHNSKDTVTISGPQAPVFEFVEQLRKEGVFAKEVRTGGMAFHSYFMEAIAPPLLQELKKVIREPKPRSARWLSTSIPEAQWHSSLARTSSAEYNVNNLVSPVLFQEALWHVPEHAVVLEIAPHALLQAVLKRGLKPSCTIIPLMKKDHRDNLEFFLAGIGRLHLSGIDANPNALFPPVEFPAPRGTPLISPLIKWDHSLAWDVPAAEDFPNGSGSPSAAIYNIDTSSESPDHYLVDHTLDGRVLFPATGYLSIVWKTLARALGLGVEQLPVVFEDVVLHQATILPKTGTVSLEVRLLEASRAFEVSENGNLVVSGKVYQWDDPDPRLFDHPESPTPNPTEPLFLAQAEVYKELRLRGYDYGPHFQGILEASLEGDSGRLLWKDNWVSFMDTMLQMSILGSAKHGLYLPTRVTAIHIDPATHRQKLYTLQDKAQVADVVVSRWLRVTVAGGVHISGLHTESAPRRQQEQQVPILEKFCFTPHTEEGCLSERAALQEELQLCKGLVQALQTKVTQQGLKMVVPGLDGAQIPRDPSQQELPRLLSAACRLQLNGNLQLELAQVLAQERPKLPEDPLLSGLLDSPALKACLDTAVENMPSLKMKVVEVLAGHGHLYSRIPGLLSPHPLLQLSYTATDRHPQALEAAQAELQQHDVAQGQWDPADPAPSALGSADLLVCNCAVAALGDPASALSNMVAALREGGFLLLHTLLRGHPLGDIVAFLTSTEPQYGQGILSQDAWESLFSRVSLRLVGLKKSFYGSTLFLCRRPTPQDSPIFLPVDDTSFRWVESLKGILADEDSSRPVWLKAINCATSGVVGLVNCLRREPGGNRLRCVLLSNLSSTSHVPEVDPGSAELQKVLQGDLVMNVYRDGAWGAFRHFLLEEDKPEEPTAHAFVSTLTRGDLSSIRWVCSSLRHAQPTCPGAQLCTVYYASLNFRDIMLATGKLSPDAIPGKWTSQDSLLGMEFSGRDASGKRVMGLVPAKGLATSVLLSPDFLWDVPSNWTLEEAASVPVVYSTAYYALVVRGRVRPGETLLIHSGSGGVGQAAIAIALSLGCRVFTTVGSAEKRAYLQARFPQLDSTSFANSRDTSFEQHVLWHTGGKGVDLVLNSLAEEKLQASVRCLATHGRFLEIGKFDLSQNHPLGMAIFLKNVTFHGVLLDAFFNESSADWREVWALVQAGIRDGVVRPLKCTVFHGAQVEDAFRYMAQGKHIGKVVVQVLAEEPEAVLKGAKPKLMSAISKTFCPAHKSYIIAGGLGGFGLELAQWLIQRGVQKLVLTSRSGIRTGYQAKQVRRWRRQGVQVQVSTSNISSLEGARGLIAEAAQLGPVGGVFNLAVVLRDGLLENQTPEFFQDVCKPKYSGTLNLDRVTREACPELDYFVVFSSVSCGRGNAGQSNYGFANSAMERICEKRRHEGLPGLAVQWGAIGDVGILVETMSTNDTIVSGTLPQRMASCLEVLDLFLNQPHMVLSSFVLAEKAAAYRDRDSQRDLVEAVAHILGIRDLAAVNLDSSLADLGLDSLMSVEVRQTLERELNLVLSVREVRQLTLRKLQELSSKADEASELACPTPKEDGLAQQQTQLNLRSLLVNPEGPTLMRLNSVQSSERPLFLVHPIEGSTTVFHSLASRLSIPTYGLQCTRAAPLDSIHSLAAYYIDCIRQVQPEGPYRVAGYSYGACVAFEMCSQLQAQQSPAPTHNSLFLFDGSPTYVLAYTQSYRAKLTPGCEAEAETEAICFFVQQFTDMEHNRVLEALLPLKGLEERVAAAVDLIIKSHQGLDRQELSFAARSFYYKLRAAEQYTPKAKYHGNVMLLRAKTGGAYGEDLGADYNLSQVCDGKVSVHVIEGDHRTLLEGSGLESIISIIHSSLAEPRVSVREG
- experiment summary: Fatty Acid Synthase (FASN) Inhibition Scintillation Proximity Assay
- Type: biochemical
- experimental setup: read-out: FASN % Effect @1E−05M
- Method: In this assay, inhibition of FASN activity is measured using ^3H-acetyl-CoA and malonyl-CoA as substrates. ^3H-Acetyl CoA is converted to ^3H-palmitate through a series of reactions by the FASN protein, which contains 7 functional domains and carries out 7 enzymatic reactions to ultimately produce ^3H-palmitate. […] Raw data generated by the instrument were normalized to % Controlmin values, which were calculated as: % Controlmin=100*(x−mLC)/(mHC−mLC) […]
reported endpoint: inhibition at 10 µM (%)

> print(dat)
                                   compound                             tested.system  u  observed.measurement
1  Cc1ccc(C(=O)N2CC[C@H](c3ccc(-n4ccnc4)cc3)[C@@H](C)C2)cc1NC(=O)c1ccc(Cl)nc1 (racemic) [Compound 54]  hFASN enzyme (full length) (Homo sapiens, UniProt P49327)  %                   104
2  COc1ccc(C(=O)N2CC(c3ccc(-c4cnn(C)c4)cc3)C2)cc1NC(=O)c1ccc(Cl)nc1 [Compound 183]  hFASN enzyme (full length) (Homo sapiens, UniProt P49327)  %                    98
3  Cc1ccc(C(=O)N2CCC(c3ccc(-c4cnn(C(C)C)c4)cc3)CC2)cc1NC(=O)c1ccc(NC(C)C)nc1 [Compound 247]  hFASN enzyme (full length) (Homo sapiens, UniProt P49327)  %                   112
4  Cc1ccc(C(=O)N2CCC(c3ccc4nccn4c3)CC2)cc1NC(=O)c1ccc(NC(C)C)nc1 [Compound 17]  hFASN enzyme (full length) (Homo sapiens, UniProt P49327)  %                    51

====

Attribute: IC50
- tested system: FASN Keto-reductase Domain (Homo sapiens, UniProt P49327)
- Construct: 10 μL hFASN enzyme (full length, 300 ng, purified in house) and 360 μM NADPH; made in house
- Sequence (P49327 whole entry, the tested form may be a part): as the sequence (P49327 whole entry) above
- experiment summary: Fatty Acid Synthase Keto-Reductase Domain (FASN KR) Inhibition
- Type: biochemical
- experimental setup: mean where tested more than once; read-out: FASN K-R Domain pIC50 (converted)
reported endpoint: IC50 (nM)

> print(dat)
                                    compound                             tested.system  observed.measurement
 1  Cc1ccc(C(=O)N2CCC(c3ccc(-c4cnn(C)c4)cc3)CC2)cc1NC(=O)c1ccc(N(C)C(C)C)nc1  FASN Keto-reductase Domain (Homo sapiens, UniProt P49327)                  30.9
 2  CC(C)Nc1ccc(C(=O)Nc2cc(C(=O)N3CCC(c4ccc(-c5cnn(C)c5)cc4)CC3)ccc2O)cn1  FASN Keto-reductase Domain (Homo sapiens, UniProt P49327)                   257
 3  Cc1ccc(C(=O)N2CCC(c3ccc4c(c3)NC(=O)CC4)CC2)cc1NC(=O)c1ccc(Cl)nc1  FASN Keto-reductase Domain (Homo sapiens, UniProt P49327)                  1170
 4  Cc1ccc(C(=O)N2CC(c3ccc(-c4ccncc4)cc3)C2)cc1NC(=O)c1ccc(NC(C)C)nc1  FASN Keto-reductase Domain (Homo sapiens, UniProt P49327)                  52.5
 5  Cc1ccc(C(=O)N2CC[C@H](c3ccc(-c4ccnn4C)cc3)[C@@H](C)C2)cc1NC(=O)c1ccc(Cl)nc1 (racemic)  FASN Keto-reductase Domain (Homo sapiens, UniProt P49327)                   132
 6  Cc1ccc(C(=O)N2CC(c3ccc(-c4cnn(C)c4)cc3)C2)cc1NC(=O)c1ccc(N2CCN(C)CC2)nc1  FASN Keto-reductase Domain (Homo sapiens, UniProt P49327)                  72.4
 7  CNc1ccc(C(=O)N2CCC(c3ccc(-c4cnn(C)c4)cc3)CC2)cc1NC(=O)c1ccc(NC(C)C)nc1  FASN Keto-reductase Domain (Homo sapiens, UniProt P49327)                  93.3
 8  CCCCCCN1CC(C(=O)Nc2cc(C(=O)N3CCC(c4ccc(-c5cnn(C)c5)cc4)CC3)ccc2C)C1  FASN Keto-reductase Domain (Homo sapiens, UniProt P49327)                   186
 9  Cc1ccc(C(=O)N2CCC(c3ccc(-c4cnn(C)c4)cc3)C2)cc1NC(=O)c1ccc(NC(C)C)nc1 (centres unmarked)  FASN Keto-reductase Domain (Homo sapiens, UniProt P49327)                   380
10  COc1ccccc1C(=O)Nc1cc(C(=O)N2CCC(c3ccc(-c4cnn(C)c4)cc3)CC2)ccc1C  FASN Keto-reductase Domain (Homo sapiens, UniProt P49327)                   617
11  Cc1ccc(C(=O)N2CCC(c3ccc(-c4cnn(C)c4)cc3)CC2)cc1NC(=O)c1cccc(Cl)c1  FASN Keto-reductase Domain (Homo sapiens, UniProt P49327)                   151
12  Cc1ccc(C(=O)N2CCC(c3ccc(-c4cnn(C)c4)cc3)CC2)cc1NC(=O)C1CCN(C2CCC(C)C2)C1 (centres unmarked)  FASN Keto-reductase Domain (Homo sapiens, UniProt P49327)                   214
13  Cc1ccc(C(=O)N2CC(c3ccc(-c4ccnn4C)cc3)C2)cc1NC(=O)c1ccc2ccccc2n1  FASN Keto-reductase Domain (Homo sapiens, UniProt P49327)                   513
14  Cc1ccc(C(=O)N2CCC(c3ccc(-c4cnn(C)c4)cc3)CC2)cc1NC(=O)C1CN(C2CCC(C)C2)C1 (centres unmarked)  FASN Keto-reductase Domain (Homo sapiens, UniProt P49327)                   178

====

inhibition at 10 µM reference
- tested system: hFASN enzyme (full length) (Homo sapiens)
- Construct: 10 μL hFASN enzyme (full length, 300 ng, purified in house); made in house
- experiment summary: Fatty Acid Synthase (FASN) Inhibition Scintillation Proximity Assay
- Format: biochemical
- experimental setup: read-out: FASN % Effect @1E−05M
- Experimental: In this assay, inhibition of FASN activity is measured using ^3H-acetyl-CoA and malonyl-CoA as substrates. ^3H-Acetyl CoA is converted to ^3H-palmitate through a series of reactions by the FASN protein, which contains 7 functional domains and carries out 7 enzymatic reactions to ultimately produce ^3H-palmitate. […] Raw data generated by the instrument were normalized to % Controlmin values, which were calculated as: % Controlmin=100*(x−mLC)/(mHC−mLC) […]
reported endpoint: inhibition at 10 µM (%)

> print(dat)
                                   compound                             tested.system  u  observed.measurement
1  Cc1ccc(C(=O)N2CCC(c3ccc(-c4cnn(C)c4)cc3)CC2)cc1NC(=O)c1ccncc1F [Compound 161]  hFASN enzyme (full length) (Homo sapiens)  %                   101
2  Cc1ccc(C(=O)N2CCC(c3ccc4c(c3)NC(=O)CC4)CC2)cc1NC(=O)c1ccc(NC(C)C)nc1 [Compound 35]  hFASN enzyme (full length) (Homo sapiens)  %                    99
3  CC(C)Nc1ccc(C(=O)Nc2cc(C(=O)N3CCC(c4ccc(-c5ccncc5)cc4)CC3)ccc2Cl)cn1 [Compound 72]  hFASN enzyme (full length) (Homo sapiens)  %                   110
4  Cc1ccc(C(=O)N2CCC(c3ccc(-c4cnn(C)c4)cc3)CC2)cc1NC(=O)c1cccnc1Cl [Compound 101]  hFASN enzyme (full length) (Homo sapiens)  %                   105
5  CCCCN1CCC(C(=O)Nc2cc(C(=O)N3CCC(c4ccc(-c5cnn(C)c5)cc4)CC3)ccc2C)CC1 [Compound 211]  hFASN enzyme (full length) (Homo sapiens)  %                   113
6  Cc1ccc(C(=O)N2CCC(c3ccc(-c4cnn(C)c4)cc3)CC2)cc1NC(=O)C1CCN(C)CC1 [Compound 169]  hFASN enzyme (full length) (Homo sapiens)  %                   106
7  COc1ccc(C(=O)N2CC(c3ccc(-c4cnn(C)c4)cc3)C2)cc1NC(=O)c1ccc(N2CCOCC2)nc1 [Compound 184]  hFASN enzyme (full length) (Homo sapiens)  %                   105
